The origin of these recorded values is paper PMC5540273.

system: MEK5; construct: gene MAP2K5; conditions: concentration: 1 μM, replicates: in singlicate; n = 1;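 also: KINOMEscan kinase panel screen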
Simple rule here: %Inh less than 80% is met, otherwise not met.

> print(dat)
                                   molecule  discrete.label
1  Fc1cc(Cl)ccc1Nc1ccnc2cc(-c3ccc(CN4CCCCC4)o3)ccc12         not met
2  CC(C)(C)c1ccc(C(=O)Nc2cn3cc(-c4cccnc4)ccc3n2)cc1         not met
3  Cc1c(Cn2ccn3c(=O)cc(N4CCOCC4)nc23)cccc1C(F)(F)F             met
4  Cc1cccc(-c2nc(Nc3cccc(C(N)=O)c3)c3ccccc3n2)n1             met

Ask: Hi there! Is %Inh for Cc1csc(-c2nc(Nc3ccncc3)c3ccccc3n2)n1 below 80%, do you know?
Reply: met

---

Assignment: determine reported %Inh for the given compounds.
tested on: TEC; conditions: concentration: 1 μM, replicates: in singlicate; n = 1

Could you report %Inh for every entry in the following list?
1. Nc1ncnc2[nH]c(-c3ccccc3)nc12
2. COc1cc2ncn(-c3cc(OCC4CCCO4)c(C(N)=O)s3)c2cc1OC (centres unmarked)
3. O=C(O)COc1ncnc2cc(-c3ccc4[nH]ncc4c3)sc12
4. Cc1cc(NCC(c2ccccc2)c2ccccc2)nc(NCc2ccc(C(F)(F)F)cc2)n1
5. Cc1cccc(-c2nc(Nc3cccc(C(N)=O)c3)c3ccccc3n2)n1

Reply:
28%
0%
0%
0%
2%

---

tested on: ACVR2B; conditions: concentration: 1 μM, replicates: in singlicate; n = 1
MEASURED_ENDPOINT: %Inh (%)
One number for each entry, in %.

Solved cases below.
> print(dat)
                                chem.smiles  measurement.target  observed.result
1  CN1C(=O)C(Nc2ccc(Cl)c(C(=O)O)c2)=C(c2ccc(Cl)cc2)C1=O              ACVR2B                0
2  Cc1ccc(C(=O)Nc2ccc(Nc3ccnc4cc(-c5ccccn5)ccc34)cc2O)cc1.Cl              ACVR2B               25
3  Cl.NC(=O)c1cccc(Nc2nccc(Nc3ccc(Oc4cccc(Cl)c4)c(Cl)c3)n2)c1              ACVR2B               14

Could you report %Inh for every entry in the following list?
1. Cc1cc(N2Cc3ccccc3C2)nc(Nc2ccc(S(=O)(=O)N3CCOCC3)cc2)n1.Cl
2. O=C(Nc1n[nH]c2nc(-c3nccs3)c(Br)cc12)C1CC1

Reply:
1: 0; 2: 11

---

test system: FLT1; conditions: concentration: 1 μM, replicates: in singlicate; n = 1
Assignment: determine reported %Inh for the given compounds.
Numbers only, in %.

Solved cases below.
> print(dat)
                                   compound  measurement.target  unit.of.measurement  observed.result
1  O=C1NC(=O)C(N2CCc3ccccc32)=C1c1ccccc1Cl [SB-373598]                FLT1                    %                6
2  Cl.O=C(Nc1cccc(-c2nn3ncccc3c2-c2ccnc(Nc3cccnc3)n2)c1)c1c(F)cccc1F [GSK312879]                FLT1                    %               45
3  CS(=O)(=O)c1ccc(-c2nc3n(c2-c2ccncc2)CCC3)cc1 [SKF-105942]                FLT1                    %               11

Could you report %Inh for every entry in the following list?
1. COc1cc2nccc(Nc3ccc(NC(=O)c4ccc(C)cc4)c(O)c3)c2cc1OC.Cl [GW440132]
2. O=C(O)COc1ncnc2cc(-c3ccc4[nH]ncc4c3)sc12

Reply:
1. 30
2. 0

Could you report %Inh for every entry in the following list?
1. Cc1c(O)cccc1Nc1ccnc2ccc(C(F)(F)F)cc12.Cl [GW466413]
2. Cl.Oc1ccc(-c2nc(-c3ccccc3)[nH]c2-c2ccncc2)cc1 [SB-428218]
3. Cc1ccc(C(=O)Nc2ccc(Nc3ccnc4cc(-c5ccccn5)ccc34)cc2O)cc1.Cl [GW440146]
4. Cc1cccc(-c2nc(-c3ccc(S(C)(=O)=O)cc3)sc2-c2ccnc(NCCc3ccccc3)c2)c1
5. Cc1nnc(-c2ccc3occ(-c4ccc(S(C)=O)cc4)c3c2)[nH]1 (stereo not shown)
6. Fc1cccc(COc2nnc(-c3ccc4c(c3)CCO4)o2)c1
7. O=C(Nc1n[nH]c2nc(-c3nccs3)c(Br)cc12)C1CC1 [SB-742251]

Reply:
1: 28; 2: 0; 3: 28; 4: 18; 5: 0; 6: 0; 7: 36

---

system: GSK3A; settings: concentration: 1 μM, replicates: in singlicate; n = 1
Simple rule here: %Inh less than 9% is 1, otherwise 0.

Reference set, count: 2
> print(dat)
                                   compound  discrete.label
1  Cc1cccc(-c2nc(-c3ccc(S(C)(=O)=O)cc3)sc2-c2ccnc(NCCc3ccccc3)c2)c1               1
2  COc1ccc(Nc2nccc(-c3cccc(NC(=O)c4cc5cc(F)ccc5[nH]4)c3)n2)cc1               0

Ask: Hi there! Is %Inh for COc1ccc(CNC(=O)NC2CCN(c3ccnc(Nc4cc(OC)c(OC)c(OC)c4)n3)C2)cc1 (stereo not shown) below 9%, do you know?
Reply: 1

Ask: Hi there! Is %Inh for O=C(O)COc1ncnc2cc(-c3ccc4[nH]ncc4c3)sc12 below 9%, do you know?
Reply: 0

---

tested on: ZAK; details: concentration: 1 μM, replicates: in singlicate; n = 1
Assignment: determine reported %Inh for the given compounds.
Give bare numbers, in %.

> print(dat)
                                chem.smiles  measured.endpoint  observed.result
1  O=S(=O)(c1ccc(-c2ccnc3[nH]ccc23)cc1)N1CCCC1               %Inh                0
2  Cl.Oc1ccc(-c2nc(-c3ccccc3)[nH]c2-c2ccncc2)cc1               %Inh               10
3        Cc1cccc(-c2nc(C)cc(Nc3ccncc3)n2)n1               %Inh                0
4  Cn1cncc1-c1ccc2ncnc(Nc3ccc(OCc4ccccc4)cc3)c2c1               %Inh               17
5  COc1cc2ncnc(Nc3ccc4nc(-c5ccccc5)[nH]c4c3)c2cc1OC.Cl               %Inh                0
6  COC(=O)c1c(-c2ccccc2)c2cc(C(=O)O)ccc2c(=O)n1Cc1ccccc1               %Inh                0
7  CC(C)(C)c1ccc(C(=O)Nc2cn3cc(Cl)ccc3n2)cc1               %Inh                0
8  COc1cccc(-c2cc(-c3c[nH]nc3-c3ccccn3)ccn2)c1               %Inh                0

Now turn to the next compound.
Ask: Look up %Inh: Cc1csc(-c2nc(Nc3ccncc3)c3ccccc3n2)n1
Reply: 17

---

system: IKK-beta; construct: gene IKBKB; conditions: concentration: 1 μM, replicates: in singlicate; n = 1
Assignment: determine reported %Inh for the given molecules.
Please answer using the number first and the unit second.

Solved cases below.
> print(dat)
                                chem.smiles  observed.result
1  Cc1cc(NCC(c2ccccc2)c2ccccc2)nc(NCc2ccc(C(F)(F)F)cc2)n1               0%
2  COc1ccc(Nc2nccc(NCCNC(=O)Nc3ccccc3F)n2)cc1              11%
3  COc1cc2ncnc(Nc3ccc4nc(-c5ccccc5)[nH]c4c3)c2cc1OC.Cl               0%
4  CC(=O)Nc1nc2cnc(Nc3cc(NC(=O)c4cccc(CCC#N)c4)ccc3C)nc2s1               0%
5                Cc1ccccc1-n1cnc2c(N)ncnc21               0%

Could you report %Inh for every entry in the following list?
1. COC(=O)c1c(-c2ccccc2)c2cc(C(=O)O)ccc2c(=O)n1Cc1ccccc1
2. CN1C(=O)C(Nc2ccc(Cl)c(C(=O)O)c2)=C(c2ccc(Cl)cc2)C1=O
3. COC(=O)c1c(-c2ccccc2)c2cc(OC)ccc2c(=O)n1Cc1ccccc1
4. O=c1cc(N2CCOCC2)nc2n(Cc3cccc(Cl)c3Cl)ccn12

Reply:
1: 0%; 2: 17%; 3: 4%; 4: 25%

---

tested on: LATS2; settings: concentration: 1 μM, replicates: in singlicate; n = 1
Assignment: determine reported %Inh for the given compounds.
Give bare numbers, in %.

Solved cases below.
> print(dat)
                                   compound  unit.of.measurement  observed.result
1  Fc1cc(Cl)ccc1Nc1ccnc2cc(-c3ccc(CN4CCCCC4)o3)ccc12                    %                0
2  Cn1ccc2ncnc(Oc3cccc(C(=O)Nc4ccccc4)c3)c21                    %                6
3  COC(=O)c1c(-c2ccccc2)c2cc(OC)ccc2c(=O)n1Cc1ccccc1                    %                0

Could you report %Inh for every entry in the following list?
1. Cc1cccc(-c2nc(C)cc(Nc3ccncc3)n2)n1
2. Cc1csc(-c2nc(Nc3ccncc3)c3ccccc3n2)n1

Reply:
1: 0; 2: 20

Could you report %Inh for every entry in the following list?
1. Cl.Oc1ccc(-c2nc(-c3ccccc3)[nH]c2-c2ccncc2)cc1
2. COc1ccccc1CNC(=O)c1cc(C(=O)c2ccccc2C)c[nH]1
3. Clc1cc(Cl)cc(Nc2ccnc(Nc3cc(Cl)cc(Cl)c3)n2)c1
4. C[C@@H]1CCCCN1c1cc(-c2ccc3c(N)n[nH]c3c2)nc(N)n1
5. CC(=O)Nc1nc2cnc(Nc3cc(NC(=O)c4cccc(CCC#N)c4)ccc3C)nc2s1
6. Cc1cccc(-c2cc(Nc3ccncc3)c3ccccc3n2)n1
7. Cc1cc(-c2ccc3c(c2)CC[C@@H](N[C@@H](C)c2ccccc2)C3)cnc1N.Cl

Reply:
1. 48
2. 0
3. 17
4. 14
5. 29
6. 22
7. 0

Could you report %Inh for every entry in the following list?
1. Cc1cccc(-c2nc(Nc3ccncc3)c3ccccc3n2)n1
2. Cc1ccc(NC(=O)Nc2cc(C(C)(C)C)nn2-c2ccccc2)cc1
3. Cn1ccc2ncnc(Oc3ccc(Nc4nc5ccccc5[nH]4)cc3)c21

Reply:
[0, 0, 0]
